Where a name gives a salt, the structure may show the parent alone.
metric: melting point

compound=COc1cc(CN[C@@H](CC(C)C)C(=O)N2CCN(C(c3ccc(F)cc3)c3ccc(F)cc3)CC2)cc(OC)c1OC metric="melting point" endpoint_result="58 to 62 °C"
compound=CC(C)C[C@H](NC(=O)N1CCCCCC1)C(=O)NCc1nn(-c2ccccc2)c2ccccc12 metric="melting point" endpoint_result="135 to 136 °C"
compound="CC(C)C[C@@H](C(=O)NCCCC(c1ccc(F)cc1)c1ccc(F)cc1)N(C)C1CCOCC1 (as salt: hydrochloride) [Example 27, monohydrochloride]" metric="melting point" endpoint_result="75 to 92 °C"
compound="CC(C)C[C@@H](C(=O)NCCCC(c1ccc(F)cc1)c1ccc(F)cc1)N(C)C (as salt: hydrochloride) [Example 20, monohydrochloride]" metric="melting point" endpoint_result="60 to 72 °C"
compound=CC(C)C[C@@H](C(=O)NCCCC(c1ccc(F)cc1)c1ccc(F)cc1)N1CCCCC1 metric="melting point" endpoint_result="52 to 70 °C"

// "CC(C)C[C@@H](C(=O)N1CCN(C(c2ccc(F)cc2)c2ccc(F)cc2)CC1)N(C)C1CCOCC1" : melting point value = 56 to 65 °C

// "CC(C)C[C@H](NC(=O)N1CCN(c2ccccc2)CC1)C(=O)N1CCN(C(c2ccc(F)cc2)c2ccc(F)cc2)CC1" : melting point value = 83 to 91 °C

----------
Anti-Writhing % Protection (dose) values, listed per item
System: acetic acid-induced writhing in Swiss-Webster mice
test.method.notes: Anti-writhing test in mice (AW)
Type: in vivo
particulars: 10 mg/kg
Description: Anti-Writhing Test in Mice (AW) Test Protocol The purpose of this test is to evaluate drugs for analgesic-like activity. […] Compounds are dissolved or suspended in physiological saline containing 2% Emulphor. […] Drug doses are expressed as the active moiety and are normally administered to mice (10, 30, and 100 mg/kg IP, SC, PO, or IM) in a volume of 10 mL/kg, 1 hour prior to testing; ICV doses (in μg/kg) are administered in a volume of 0.5 mL/kg, 5 minutes prior to testing. […]
Counter-ions that a name gives are not always drawn.
Form entry: value (% @ 10 mg/kg) — number only.

Completed entries (count: 3):
molecule="CN[C@H](CC(C)C)C(=O)NCCCC(c1ccc(F)cc1)c1ccc(F)cc1 [Example 71, monohydrochloride]" scale_unit="% @ 10 mg/kg" endpoint_result=33.9
molecule="CN[C@H](C(=O)NCCCC(c1ccc(F)cc1)c1ccc(F)cc1)C(C)C [Example 73, monohydrochloride]" scale_unit="% @ 10 mg/kg" endpoint_result=90.4
molecule=CC(C)CN(C)CC(=O)NCCCC(c1ccc(F)cc1)c1ccc(F)cc1 scale_unit="% @ 10 mg/kg" endpoint_result=0

Now consider the entry below.
"CN[C@@H](CNCCCC(c1ccc(F)cc1)c1ccc(F)cc1)CC(C)C" tested on acetic acid-induced writhing in Swiss-Webster mice gave Anti-Writhing % Protection (dose): 43.4

----------
target.system: L-type calcium channels in A10 cells (Rattus norvegicus)
Construct: which endogenously expresses L-type calcium channels
Sequence (P22002 whole entry): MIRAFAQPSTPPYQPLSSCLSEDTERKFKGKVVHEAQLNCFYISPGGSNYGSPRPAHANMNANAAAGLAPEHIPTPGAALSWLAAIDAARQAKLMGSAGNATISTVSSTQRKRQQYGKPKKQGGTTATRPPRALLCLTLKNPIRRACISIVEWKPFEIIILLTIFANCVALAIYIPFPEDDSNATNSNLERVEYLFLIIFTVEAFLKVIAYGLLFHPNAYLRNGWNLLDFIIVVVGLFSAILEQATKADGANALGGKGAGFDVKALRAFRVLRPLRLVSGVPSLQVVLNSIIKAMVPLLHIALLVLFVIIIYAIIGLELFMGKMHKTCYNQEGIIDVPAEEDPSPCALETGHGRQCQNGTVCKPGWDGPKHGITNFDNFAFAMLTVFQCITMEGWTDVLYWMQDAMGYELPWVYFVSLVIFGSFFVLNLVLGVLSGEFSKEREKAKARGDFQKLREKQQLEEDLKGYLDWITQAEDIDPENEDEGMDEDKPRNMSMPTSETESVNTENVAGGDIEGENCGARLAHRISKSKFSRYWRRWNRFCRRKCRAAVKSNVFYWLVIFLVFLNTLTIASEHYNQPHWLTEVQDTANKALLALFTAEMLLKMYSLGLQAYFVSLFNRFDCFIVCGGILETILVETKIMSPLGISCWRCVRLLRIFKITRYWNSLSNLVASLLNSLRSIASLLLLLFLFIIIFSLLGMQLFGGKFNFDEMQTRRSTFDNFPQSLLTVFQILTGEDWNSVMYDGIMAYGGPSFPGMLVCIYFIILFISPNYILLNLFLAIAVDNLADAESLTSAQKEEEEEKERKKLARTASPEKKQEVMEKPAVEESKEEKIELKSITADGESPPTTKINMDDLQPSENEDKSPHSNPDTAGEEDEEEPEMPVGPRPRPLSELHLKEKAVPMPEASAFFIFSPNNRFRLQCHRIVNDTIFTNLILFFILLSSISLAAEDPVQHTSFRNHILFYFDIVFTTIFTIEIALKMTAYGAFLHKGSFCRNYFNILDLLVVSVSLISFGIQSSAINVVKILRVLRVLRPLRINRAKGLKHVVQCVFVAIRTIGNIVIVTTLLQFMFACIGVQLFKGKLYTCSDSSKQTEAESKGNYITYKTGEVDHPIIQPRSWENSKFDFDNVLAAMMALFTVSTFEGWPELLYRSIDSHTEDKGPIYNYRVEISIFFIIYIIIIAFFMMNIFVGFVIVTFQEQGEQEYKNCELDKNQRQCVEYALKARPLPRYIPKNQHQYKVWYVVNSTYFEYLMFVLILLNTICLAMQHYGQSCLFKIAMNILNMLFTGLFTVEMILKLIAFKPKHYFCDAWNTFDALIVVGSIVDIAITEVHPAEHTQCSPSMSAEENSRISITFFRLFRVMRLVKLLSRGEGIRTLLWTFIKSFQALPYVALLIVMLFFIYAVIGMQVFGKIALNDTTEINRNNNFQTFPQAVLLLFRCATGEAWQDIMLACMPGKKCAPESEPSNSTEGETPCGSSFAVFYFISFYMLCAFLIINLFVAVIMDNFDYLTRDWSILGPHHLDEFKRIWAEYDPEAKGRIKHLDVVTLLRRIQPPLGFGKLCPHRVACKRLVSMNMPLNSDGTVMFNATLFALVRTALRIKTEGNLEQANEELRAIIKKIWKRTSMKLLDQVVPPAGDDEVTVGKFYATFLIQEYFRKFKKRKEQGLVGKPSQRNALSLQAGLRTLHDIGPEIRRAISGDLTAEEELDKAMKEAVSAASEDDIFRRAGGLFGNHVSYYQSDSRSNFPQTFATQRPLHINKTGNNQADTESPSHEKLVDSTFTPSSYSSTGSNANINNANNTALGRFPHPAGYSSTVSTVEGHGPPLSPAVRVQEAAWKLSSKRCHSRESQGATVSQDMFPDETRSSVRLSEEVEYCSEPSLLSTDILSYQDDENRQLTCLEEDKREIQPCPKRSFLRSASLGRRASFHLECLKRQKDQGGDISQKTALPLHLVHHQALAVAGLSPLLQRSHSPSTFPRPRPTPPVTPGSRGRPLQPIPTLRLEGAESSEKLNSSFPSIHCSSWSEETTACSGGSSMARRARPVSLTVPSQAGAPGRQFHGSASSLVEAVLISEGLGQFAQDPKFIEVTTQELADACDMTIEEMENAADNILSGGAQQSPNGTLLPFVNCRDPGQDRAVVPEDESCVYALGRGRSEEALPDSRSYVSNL
Sequence (P54290 25-944 partner limits assumed): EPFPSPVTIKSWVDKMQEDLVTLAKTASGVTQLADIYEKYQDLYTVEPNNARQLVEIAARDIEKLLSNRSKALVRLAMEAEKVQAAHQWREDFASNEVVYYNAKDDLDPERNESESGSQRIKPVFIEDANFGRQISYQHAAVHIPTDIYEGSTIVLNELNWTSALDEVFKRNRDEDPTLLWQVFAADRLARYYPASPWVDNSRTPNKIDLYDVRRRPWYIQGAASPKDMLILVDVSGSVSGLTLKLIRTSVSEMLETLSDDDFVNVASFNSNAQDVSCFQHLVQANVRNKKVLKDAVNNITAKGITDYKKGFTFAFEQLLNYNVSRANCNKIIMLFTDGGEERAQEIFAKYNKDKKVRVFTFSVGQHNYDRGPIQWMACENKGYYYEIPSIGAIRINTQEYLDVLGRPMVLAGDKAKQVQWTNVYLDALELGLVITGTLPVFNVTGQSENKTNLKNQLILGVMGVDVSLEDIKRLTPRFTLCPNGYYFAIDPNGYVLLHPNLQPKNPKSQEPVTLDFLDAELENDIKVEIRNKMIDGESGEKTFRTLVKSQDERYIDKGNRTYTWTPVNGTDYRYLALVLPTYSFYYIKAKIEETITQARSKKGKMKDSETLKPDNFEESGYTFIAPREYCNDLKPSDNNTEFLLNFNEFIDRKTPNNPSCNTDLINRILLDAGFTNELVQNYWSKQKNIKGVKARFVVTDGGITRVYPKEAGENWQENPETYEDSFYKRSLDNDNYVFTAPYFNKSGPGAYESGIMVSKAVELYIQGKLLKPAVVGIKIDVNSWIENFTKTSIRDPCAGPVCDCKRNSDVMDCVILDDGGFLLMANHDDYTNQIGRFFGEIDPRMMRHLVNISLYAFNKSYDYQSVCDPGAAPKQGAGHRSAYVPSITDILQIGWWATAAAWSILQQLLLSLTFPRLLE
Sequence (P54290 945-1091 partner limits assumed): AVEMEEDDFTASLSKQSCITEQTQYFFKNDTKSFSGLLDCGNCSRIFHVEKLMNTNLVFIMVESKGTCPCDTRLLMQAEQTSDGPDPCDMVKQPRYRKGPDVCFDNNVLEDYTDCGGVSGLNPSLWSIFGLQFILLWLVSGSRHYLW
Sequence (P54287 whole entry partner): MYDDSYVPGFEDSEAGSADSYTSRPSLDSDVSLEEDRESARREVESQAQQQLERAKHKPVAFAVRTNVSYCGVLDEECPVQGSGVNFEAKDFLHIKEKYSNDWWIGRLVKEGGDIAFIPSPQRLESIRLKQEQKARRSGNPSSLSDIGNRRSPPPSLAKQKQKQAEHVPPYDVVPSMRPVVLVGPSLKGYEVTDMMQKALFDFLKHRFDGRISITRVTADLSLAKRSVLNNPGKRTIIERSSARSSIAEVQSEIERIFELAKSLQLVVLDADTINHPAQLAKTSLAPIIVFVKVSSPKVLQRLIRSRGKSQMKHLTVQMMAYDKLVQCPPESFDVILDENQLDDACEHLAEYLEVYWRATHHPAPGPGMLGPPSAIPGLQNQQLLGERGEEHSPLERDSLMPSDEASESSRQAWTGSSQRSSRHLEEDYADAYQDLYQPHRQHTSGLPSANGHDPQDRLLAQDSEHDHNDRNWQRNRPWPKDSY
test.method.notes: L-type Ca2+ channel blocking potency in A10 cells (FLIPR)
particulars: read-out: FLPA10 IC50
Counter-ions that a name gives are not always drawn.
IC50 values, listed per item

Completed entries (count: 3):
molecule=CC(C)C[C@H](NC(=O)N1CCCCCC1)C(=O)N1CCN(C(c2ccc(F)cc2)c2ccc(F)cc2)CC1 endpoint_result="1.2 µM"
molecule=N[C@@H](Cc1ccccc1)C(=O)N1CCN(C(c2ccc(F)cc2)c2ccc(F)cc2)CC1 endpoint_result="0.43 µM"
molecule="CC(C)C[C@@H](C(=O)NCCCC(c1ccc(F)cc1)c1ccc(F)cc1)N(C)Cc1ccc(C(C)(C)C)cc1.Cl [Example 14, monohydrochloride]" endpoint_result="> 3 µM"

// "CC(C)[C@H](NC(=O)N1CCCCCC1)C(=O)NCCCC(c1ccc(F)cc1)c1ccc(F)cc1" : IC50 value = 0.24 µM

// CC(C)C[C@@H](C(=O)NCCCC(c1ccc(F)cc1)c1ccc(F)cc1)N1CCOCC1 [Example 23, monohydrochloride] : IC50 value = 0.13 µM

// CC(C)C[C@H](NC(C)C)C(=O)NCCCC(c1ccc(F)cc1)c1ccc(F)cc1 [Example 19, monohydrochloride] : IC50 value = 0.66 µM

// CCC(C)[C@H](NC(=O)N1CCCCCC1)C(=O)N1CCN(C(c2ccc(F)cc2)c2ccc(F)cc2)CC1 (stereo partly drawn) : IC50 value = 0.44 µM

// CC(C)C[C@@H](C(=O)NCCCC(c1ccc(F)cc1)c1ccc(F)cc1)N(C)C1CCCCC1 [Example 21, monohydrochloride] : IC50 value = 0.27 µM

// "CC(C)[C@@H](C(=O)NCCCC(c1ccc(F)cc1)c1ccc(F)cc1)N(C)C1CCCCC1" : IC50 value = 0.4 µM

// "CC(C)C[C@@H](C(=O)N1CCN(C(c2ccc(F)cc2)c2ccc(F)cc2)CC1)N1CCCCC1" : IC50 value = 1.4 µM

// CC(C)C[C@@H](C(=O)NCCCC(c1ccc(F)cc1)c1ccc(F)cc1)N(C)C [Example 20, monohydrochloride] : IC50 value = 0.47 µM

// "CC(C)C[C@@H](C(=O)N1CCN(C(c2ccc(F)cc2)c2ccc(F)cc2)CC1)N1CCOCC1" : IC50 value = 2 µM

// "CC(C)C[C@H](NC(=O)N1CCN(c2ccccc2)CC1)C(=O)N1CCN(C(c2ccc(F)cc2)c2ccc(F)cc2)CC1" : IC50 value = 0.3 µM
